// provenance: paper PMC7419507

- TEST_DESCRIPTION: Cytotoxicity assay (CellTiter-Glo, 72 h), Jurkat
- Assay type: cell-based
- PARTICULARS: human, Jurkat cells (T lymphoma), conc 1.5625 uM, raw data (replicates)
viability at 72 h, 1.5625 uM by entry:
READOUT_KIND: viability at 72 h, 1.5625 uM (%)

INSERT INTO assay_data (molecule, readout_kind, reported_measurement) VALUES
  ('COC1CC2CCC(C)C(O)(O2)C(=O)C(=O)N2CCCCC2C(=O)OC(C(C)CC2CCC(O)C(OC)C2)CC(O)CC(=O)C(C)C=C(C)C(O)CC(=O)C(C)CC(C)C=CC=CC=C1C (stereo not drawn)', 'viability at 72 h, 1.5625 uM', 30.7),
  ('CO[C@@H]1/C=C/C=C/[C@@H](C)C[C@@H](C)C(=O)C[C@H](O)/C(C)=C/[C@@H](C)C(=O)C[C@@H]([C@H](C)C[C@@H]2CC[C@@H](O)[C@H](OC)C2)OC(=O)[C@@H]2CCCCN2C(=O)C(=O)[C@]2(O)O[C@@H](CC[C@H]2C)C1', 'viability at 72 h, 1.5625 uM', 36.2),
  ('CO[C@@H]1C[C@H](C[C@@H](C)[C@@H]2CC(=O)[C@H](C)/C=C(\C)[C@@H](O)[C@@H](OC)C(=O)[C@H](C)C[C@H](C)/C=C/C=C/C=C(\C)[C@H](O)C[C@@H]3CC[C@@H](C)[C@@](O)(O3)C(=O)C(=O)N3CCCC[C@H]3C(=O)O2)CC[C@H]1O [Compound 17, (16R)-16-O-demethyl rapamycin]', 'viability at 72 h, 1.5625 uM', 29.2),
  ('COC1CC2CCC(C)C(O)(O2)C(=O)C(=O)N2CCCCC2C(=O)OC(C(C)CC2CCC(O)C(OC)C2)CCC(C)C=C(C)C(O)C(OC)C(=O)C(C)CC(C)C=CC=CC=C1C (stereo not drawn)', 'viability at 72 h, 1.5625 uM', 21.9),
  ('CO[C@H]1C[C@@H]2CC[C@@H](C)[C@@](O)(O2)C(=O)C(=O)N2CCCC[C@H]2C(=O)O[C@H]([C@H](C)C[C@@H]2CC[C@@H](O)[C@H](OC)C2)CC(=O)[C@H](C)/C=C(\C)[C@@H](O)[C@@H](OC)C(=O)[C@H](C)C[C@H](C)/C=C/C=C/C=C/1C [Compound 1, rapamycin, reference compound]', 'viability at 72 h, 1.5625 uM', 23.8),
  ('CO[C@H]1C[C@@H]2CC[C@@H](C)[C@@](O)(O2)C(=O)C(=O)N2CCCC[C@H]2C(=O)O[C@H]([C@H](C)C[C@@H]2CC[C@@H](O)[C@H](OC)C2)CC(=O)[C@H](C)/C=C(\C)[C@@H](O)CC[C@H](C)/C=C/C=C/C=C/1C', 'viability at 72 h, 1.5625 uM', 26.7),
  ('CO[C@H]1C[C@@H]2CC[C@@H](C)[C@@](O)(O2)C(=O)C(=O)N2CCCC[C@H]2C(=O)O[C@H]([C@H](C)C[C@@H]2CC[C@@H](O)[C@H](OC)C2)CC(=O)[C@H](C)/C=C(\C)[C@@H](O)CC(=O)[C@H](C)C[C@H](C)/C=C/C=C(C)/C=C/1C', 'viability at 72 h, 1.5625 uM', 97.9),
  ('COC1CC2CCC(C)C(O)(O2)C(=O)C(=O)N2CCCCC2C(=O)OC(C(C)CC2CCC(O)C(OC)C2)CC(=O)C(C)C=C(C)C(O)CC(=O)C(C)C=C(C)C=CC=CC=C1C (stereo not drawn)', 'viability at 72 h, 1.5625 uM', 66.2),
  ('COC1CC2CCC(C)C(O)(O2)C(=O)C(=O)N2CCCCC2C(=O)OC(C(C)CC2CCC(O)C(OC)C2)CC(=O)C(C)C=C(C)C(O)C(OC)C(=O)C(C)CC(C)C=CCCC=C1C (stereo not drawn)', 'viability at 72 h, 1.5625 uM', 40.7);
